// provenance: PubChem BioAssay (NCI)

assay: NCI Yeast Anticancer Drug Screen. Data for the sgs1 mgt1 strain (AID 161);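 also: 0% = growth of cultures given vehicle only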; conditions: S. cerevisiae sgs1 mgt1 strain, at 50.0 µM
About 79,000 compounds went through this panel and 15% of them were active in at least one assay; those are over-represented in the sample as a whole. The source made the active and inactive calls. Rule as the data show it: active = growth inhibition above about 70%; inactive = the rest.
Outcome codes: 1 for active, 0 for inactive

>  <Molecule>
O=C1c2cccc3cc([N+](=O)[O-])cc(c23)C(=O)N1C(Cc1ccccc1)c1ccccc1 (centres undefined)

>  <Label Class>
0

$$$$
>  <Molecule>
O=C(NC1CCCCC1)OCc1c(COC(=O)NC2CCCCC2)c2cccn2c2c1cnn2-c1ccccc1

>  <Label Class>
0

$$$$
>  <Molecule>
O=C1NC(N2CCCC(CO)C2)=N/C1=C\c1ccc(O)cc1 (centres undefined)

>  <Label Class>
0

$$$$
>  <Molecule>
Cc1cccc(C)c1Nc1cc(=O)[nH]c(=O)[nH]1

>  <Label Class>
0

$$$$
>  <Molecule>
O=C(O)CCC(CCC(=O)O)(C(=O)O)c1ccccc1

>  <Label Class>
0

$$$$
>  <Molecule>
COc1ccc(C(C)O)cc1 (centres undefined)

>  <Label Class>
0

$$$$
>  <Molecule>
NCCCCCS(=O)(=O)O

>  <Label Class>
0

$$$$
>  <Molecule>
C/C(CC(O)(C(F)(F)F)C(F)(F)F)=N\NC(N)=S

>  <Label Class>
0

$$$$
>  <Molecule>
CC(C)(CC(=O)Nc1ccccc1)C(=O)O

>  <Label Class>
0

$$$$
>  <Molecule>
COC1(c2ccccc2)N=C(c2ccc([N+](=O)[O-])cc2)OC1(C)C (centres undefined)

>  <Label Class>
0

$$$$
>  <Molecule>
O=C1c2cccc3cccc(c23)C(=O)N1C(Cc1ccccc1)c1ccccc1 (centres undefined)

>  <Label Class>
0

$$$$
>  <Molecule>
COCn1c2ccc(OC(C)=O)cc2c2c(=O)oc(N(C)C)nc21

>  <Label Class>
0

$$$$
>  <Molecule>
O=C1c2ccccc2C(=O)N1CC1CO1 (centres undefined)

>  <Label Class>
0

$$$$
>  <Molecule>
CCC(OC(C)=O)c1ccccc1 (centres undefined)

>  <Label Class>
0

$$$$
>  <Molecule>
CCN(CC)C(=O)/C(C)=C(\C)c1ccccc1

>  <Label Class>
0

$$$$
>  <Molecule>
C[N+](C)(CC(=O)Nc1ccc(Cl)cc1)Cc1ccc2c(c1)CCCC2

>  <Label Class>
1

$$$$
>  <Molecule>
CC12NC(=O)NC1(C)NC(=O)N2 (centres undefined)

>  <Label Class>
0

$$$$
>  <Molecule>
N#CCCCCN1CCCC1

>  <Label Class>
0

$$$$
>  <Molecule>
Cc1ccc(S(=O)(=O)N/N=C/c2ccccc2)cc1

>  <Label Class>
0

$$$$
>  <Molecule>
COC1CC(OC(=O)c2ccccc2)C(OC(=O)c2ccccc2)C(CBr)O1 (centres undefined)

>  <Label Class>
1

$$$$
>  <Molecule>
Cc1ccc(NC(=S)Nc2ccccc2F)cc1

>  <Label Class>
0

$$$$
>  <Molecule>
O=C(c1ccccc1)N1C2C3CC(OCc4ccccc4)(OCc4ccccc4)C(O3)C21 (centres undefined)

>  <Label Class>
0

$$$$
>  <Molecule>
CN(C)c1nc(=S)c2cn[nH]c2[nH]1

>  <Label Class>
0

$$$$
>  <Molecule>
CN(C)CCOc1cccc(OCCN(C)C)n1

>  <Label Class>
0

$$$$
>  <Molecule>
CCCCCCCCCCCCSC(=O)CCC(=O)O

>  <Label Class>
0

$$$$
>  <Molecule>
CCn1c2ccc(C(=O)CCCN(C)C)cc2c2cc(C(=O)CCCN(C)C)ccc21

>  <Label Class>
0

$$$$
>  <Molecule>
Cc1cc(N(CCC#N)CCC#N)ccc1N=Nc1cc(Cl)ccc1Cl

>  <Label Class>
0

$$$$
>  <Molecule>
N=C(N)Sc1cc(O)c2ccccc2c1O

>  <Label Class>
0

$$$$
>  <Molecule>
O=S(=O)(c1ccccc1)N1C[C@@H]2[C@H](C1)[C@H]1C=C[C@@H]2C1

>  <Label Class>
0

$$$$
>  <Molecule>
Clc1ccc(N=Cc2ccc(C=Nc3ccc(Cl)c(Cl)c3)cc2)cc1Cl

>  <Label Class>
0

$$$$
>  <Molecule>
COC(=O)C(CCc1ccccc1[N+](=O)[O-])C(=O)OC

>  <Label Class>
0

$$$$
>  <Molecule>
CCCCN(CCCC)CCC(O)c1cc(C(F)(F)F)nc2c(C(F)(F)F)cccc12 (centres undefined)

>  <Label Class>
0

$$$$
>  <Molecule>
Cc1ccc(S(=O)(=O)N(Cc2cccc([N+](=O)[O-])c2)c2ccc(C(=O)O)cc2)cc1

>  <Label Class>
0

$$$$
>  <Molecule>
O/N=C/c1cc2c(cc1Br)OCO2

>  <Label Class>
0

$$$$
>  <Molecule>
CN(C)CCNC(=O)c1cccc2[nH]c(-c3ccncc3)nc12

>  <Label Class>
0

$$$$
>  <Molecule>
CC(=O)N(C(C)=O)N1C(=O)C2C3C=CC(C4CC34)C2C1=O (centres undefined)

>  <Label Class>
0

$$$$
>  <Molecule>
COc1ccc(/C(C)=N/OC(=O)c2sc3ccccc3c2Cl)cc1CN1CCOCC1

>  <Label Class>
0

$$$$
>  <Molecule>
C=C(C)COCc1ccc(C(C)(C)CC(C)(C)C)cc1

>  <Label Class>
0

$$$$
>  <Molecule>
CC1CCCCC(=O)N1 (centres undefined)

>  <Label Class>
0

$$$$
>  <Molecule>
CC(C)CC(C)(CC(C)C)C(=O)O

>  <Label Class>
0

$$$$
>  <Molecule>
CS(=O)(=O)OC1CCCSc2ccccc21 (centres undefined)

>  <Label Class>
0

$$$$
>  <Molecule>
CCC(C)NC(=O)C(C)C (centres undefined)

>  <Label Class>
0

$$$$
>  <Molecule>
COc1ccc(C2NCCCC2c2ccccc2)cc1 (centres undefined)

>  <Label Class>
0

$$$$
>  <Molecule>
NC(=O)OCC1CCCCC1OC(N)=O (centres undefined)

>  <Label Class>
0

$$$$
>  <Molecule>
COc1ccc(C(=O)Oc2ccccc2C)cc1

>  <Label Class>
0

$$$$
>  <Molecule>
Brc1ccc(N=C2NN=CC2(c2ccccc2)c2ccccc2)cc1

>  <Label Class>
0

$$$$
>  <Molecule>
N#CC(Nc1ccccc1)c1ccc(C(C#N)Nc2ccccc2)cc1 (centres undefined)

>  <Label Class>
0

$$$$
>  <Molecule>
COc1cc(/C=C2/C(=O)N(c3ccccc3)N=C2C)cc(OC)c1OC

>  <Label Class>
0

$$$$
>  <Molecule>
c1ccc(-c2nc3ccccc3nc2-c2ccc(Cc3ccc(-c4nc5ccccc5nc4-c4ccccc4)cc3)cc2)cc1

>  <Label Class>
0

$$$$
